Protocol: In vivo antitumor activity expressed as lethal dose with daily administration schedule against P388 murine leukemia cells
Type: ADME, organism-based
Test Context: mouse
Metric: LD50 (mg/kg)
Just the number please, in mg/kg, no unit attached.

Task: Item CC(=O)OC[C@H]1O[C@@H](N2C(=O)C=CC2=O)[C@H](OC(C)=O)[C@@H]1OC(C)=O has what recorded LD50?
Result: 10

Task: Item O=C1C=C(Cl)C(=O)N1C1O[C@H](CO)[C@@H](O)[C@H]1O (some centres undefined) has what recorded LD50?
Result: 18

Task: Item CC1=CC(=O)N(C2O[C@H](CO)[C@@H](O)[C@H]2O)C1=O (some centres undefined) has what recorded LD50?
Result: 100

Task: Item O=C1C=CC(=O)N1C1O[C@H](CO)[C@@H](O)[C@H]1O (some centres undefined) has what recorded LD50?
Result: 35
